Listed next: entries and their corresponding relative IC50.
Test system: ST8814
test protocol: relative IC50 (inflection point of fitted dose-response curve, CellTiter-Glo viability, 72 h; top asymptote may be below 50% inhibition); higher = less potent

[
  {
    "compound": "Nc1nc(OCc2cc(Br)cs2)c2[nH]cnc2n1 [Lomeguatrib]",
    "relative IC50": "> 10 µM"
  },
  {
    "compound": "C=C(c1ccc(C(=O)O)cc1)c1cc2c(cc1C)C(C)(C)CCC2(C)C [Bexarotene]",
    "relative IC50": "> 10 µM"
  },
  {
    "compound": "NC(=O)NO [Hydroxyurea]",
    "relative IC50": "> 100 µM"
  }
]

Now let's try a different one.
Which value of relative IC50 has been reported for S=P(N1CC1)(N1CC1)N1CC1 [Thio-TEPA] in the records?
> 50 µM

###

Test system: YST-1
test protocol: drug sensitivity score (DSS, CellTiter-Glo viability, 72 h) (DSS (dimensionless)); higher = more sensitive; extreme values may be limits of the assay
property label: drug sensitivity score
// return a plain number; no unit text

[
  {
    "compound": "Cn1cc(C2=Nc3cc(NC(=O)C(N)C4CCCCC4)cc4c3C2=CNNC4=O)cn1 (centres undefined) (max concentration tested 10000 nM)",
    "drug sensitivity score": 14.8
  },
  {
    "compound": "CCc1c2c(nc3ccc(O)cc13)-c1cc3c(c(=O)n1C2)COC(=O)[C@]3(O)CC [SN-38] (max concentration tested 10000 nM)",
    "drug sensitivity score": 36.9
  },
  {
    "compound": "N#Cc1ccc2[nH]c(O)c(-c3ccc(CN4CCOCC4)cn3)c2c1 [AZD-1080] (max concentration tested 10000 nM)",
    "drug sensitivity score": 0
  }
]

Field: drug sensitivity score (YST-1). Entry: CCOc1cc2ncc(C#N)c(Nc3ccc(F)c(Cl)c3)c2cc1NC(=O)/C=C/CN(C)C [Pelitinib] (max concentration tested 2500 nM)
4.87

Field: drug sensitivity score (YST-1). Entry: CO[C@H]1C[C@@H]2CC[C@@H](C)[C@@](O)(O2)C(=O)C(=O)N2CCCC[C@H]2C(=O)O[C@H]([C@H](C)C[C@@H]2CC[C@@H](O)[C@H](OC)C2)CC(=O)[C@H](C)/C=C(\C)[C@@H](O)[C@@H](OC)C(=O)[C@H](C)C[C@H](C)/C=C/C=C/C=C/1C [Sirolimus] (max concentration tested 100 nM)
6.14

Field: drug sensitivity score (YST-1). Entry: CO[C@H]1C[C@@H]2CC[C@@H](C)[C@@](O)(O2)C(=O)C(=O)N2CCCC[C@H]2C(=O)O[C@H]([C@H](C)C[C@@H]2CC[C@@H](OC(=O)C(C)(CO)CO)[C@H](OC)C2)CC(=O)[C@H](C)/C=C(\C)[C@@H](O)[C@@H](OC)C(=O)[C@H](C)C[C@H](C)/C=C/C=C/C=C/1C [Temsirolimus] (max concentration tested 100 nM)
9.18

Field: drug sensitivity score (YST-1). Entry: Cn1ncc(Cl)c1-c1cc(C(=O)N[C@H](CN)Cc2ccc(F)c(F)c2)oc1Cl [Uprosertib] (max concentration tested 10000 nM)
3.04

Field: drug sensitivity score (YST-1). Entry: CNC(=O)c1ccc(N2C(=S)N(c3ccc(C#N)c(C(F)(F)F)c3)C(=O)C2(C)C)cc1F [Enzalutamide] (max concentration tested 10000 nM)
0

Field: drug sensitivity score (YST-1). Entry: O=C(Nc1nc2cccc(-c3ccc(CN4CCS(=O)(=O)CC4)cc3)n2n1)C1CC1 [Filgotinib] (max concentration tested 10000 nM)
1.97
